Origin of values: PubChem BioAssay (NCATS)

# Tested on: WaGa
# assay_protocol: qHTS assay to identify novel small-molecules to repurpose for Merkel cell carcinoma treatment (AID 1296009); note: nearly all actives have a fitted effect of over 60% in size
# test_settings: MCC and control cell lines, CellTiter-Glo viability, 72 h; series mostly up to 46 µM
# Description: MCC is a rare and aggressive neuroendocrine skin cancer with limited treatment options. Approximately 80% of MCCs have the Merkel cell polyomavirus (MCPyV) DNA integrated into the host genome (virus-positive: VP-MCC) and viral oncogenes drive oncogenesis. The remaining MCCs are virus-negative (VN-MCC) and are caused by UV mutagenesis. […] Using cell viability as a readout (CellTiter-Glo assay) we found both overlapping and distinct drugs that can be repurposed for the treatment of VP-MCC and VN-MCC. […]
Records with an inconclusive call do not appear. The source made the active and inactive calls. Calls come from the whole dose curve; as a rule, active = well fitted inhibition curve with a large enough effect; inconclusive = small, poorly fitted or top-dose-only effect; inactive = flat fitted curve, though single readings scatter.
Entry note: the call must match one of active, inactive

Enquiry: Test call for this compound, please: Cc1c(C(=O)O)c(O)cc2c1C(=O)c1c(O)c([C@@H]3O[C@H](CO)[C@@H](O)[C@H](O)[C@H]3O)c(O)c(O)c1C2=O
Return: inactive

Enquiry: Subsequent entry: Nc1ccc(O)c(C(=O)O)c1
Return: inactive

Enquiry: Subsequent entry: Cc1[nH]cnc1CN1CCc2c(c3ccccc3n2C)C1=O
Return: inactive

Enquiry: Subsequent entry: O=C1CN(/N=C/c2ccc([N+](=O)[O-])o2)C(=O)N1
Return: active

Enquiry: Subsequent entry: CC(C)(C)c1nnc(NS(=O)(=O)c2ccc(N)cc2)s1
Return: inactive
